Test system: Yersinia pestis
Protocol Notes: Antimicrobial activity against Yersinia pestis KIM6-2082.1+ in PMHD medium supplemented with 100 uM FeCl3 after 26 hrs by spectrophotometric analysis
Type: functional, organism-based
Property: IC50

1. O=C(c1ccncc1)N1N=C(c2ccccc2O)C[C@H]1c1ccccc1O | > 16 µM

Okay, here is my list. What is IC50 for each of these?
1. O=C(c1ccccc1)N1N=C(c2ccccc2O)C[C@H]1c1ccc(O)cc1
2. O=S(=O)(c1ccccc1)N1N=C(c2ccccc2O)C[C@H]1c1ccccc1O
3. Cc1ccc(S(=O)(=O)N2N=C(c3ccccc3O)C[C@H]2c2ccccc2O)cc1
4. O=C(NO)N/N=C/c1ccc(O)cc1

1. > 16 µM
2. > 31 µM
3. > 16 µM
4. > 250 µM

Okay, here is my list. What is IC50 for each of these?
1. Oc1ccc([C@@H]2CC(c3ccccc3O)=NN2)cc1
2. CSC(=S)N/N=C/c1ccccc1O
3. N=C(NO)N1N=C(c2ccccc2O)C[C@H]1c1ccc(O)cc1
4. CC(=O)N1N=C(c2ccccc2O)C[C@H]1c1ccc(O)cc1
5. Cc1ccc(S(=O)(=O)N2N=C(c3ccccc3O)C[C@H]2c2ccc(O)cc2)cc1
6. C/C(=N\NC(=O)NO)c1ccc(O)cc1
7. Cc1ccccc1[C@@H]1CC(c2ccccc2O)=NN1C(N)=S

["> 31 µM", "> 59 µM", "> 63 µM", "> 16 µM", "> 16 µM", "> 500 µM", "> 31 µM"]

Okay, here is my list. What is IC50 for each of these?
1. N=C(NO)N/N=C/c1ccc(O)cc1
2. CC(=O)N1N=C(c2ccccc2O)C[C@H]1c1ccccc1O
3. O=S(=O)(c1ccccc1)N1N=C(c2ccccc2O)C[C@H]1c1ccc(O)cc1
4. C/C(=N\NC(=O)NO)c1ccccc1O

1: > 500 µM; 2: > 31 µM; 3: > 31 µM; 4: > 2 µM

Okay, here is my list. What is IC50 for each of these?
1. NC(=O)N1N=C(c2ccccc2O)C[C@H]1c1ccc(O)cc1
2. O=C(NO)N1N=C(c2ccccc2O)C[C@H]1c1ccccc1O
3. Oc1ccccc1C1=NN[C@H](c2ccccc2O)C1
4. O=C(NO)N1CCN(C(=S)N/N=C/c2ccccc2O)CC1
5. N=C(NO)N1N=C(c2ccccc2O)C[C@H]1c1ccccc1O

> 31 µM
> 31 µM
> 8 µM
> 4 µM
> 16 µM

Okay, here is my list. What is IC50 for each of these?
1. NC(=O)N1N=C(c2ccccc2O)C[C@H]1c1ccccc1O
2. O=C(c1ccccc1)N1N=C(c2ccccc2O)C[C@H]1c1ccccc1O

1: > 250 µM; 2: > 63 µM

###

Test system: Yersinia pestis
Protocol Notes: Antimicrobial activity against Yersinia pestis KIM6-2082.1+ in PMHD medium after 26 hrs by spectrophotometric analysis
Format: functional, organism-based
Answer each item with its documented IC50.

Okay, here is my list. What is IC50 for each of these?
1. CC(=O)N1N=C(c2ccccc2O)C[C@H]1c1ccccc1O
2. Cc1ccccc1[C@@H]1CC(c2ccccc2O)=NN1C(N)=S
3. O=C(NO)N1N=C(c2ccccc2O)C[C@H]1c1ccccc1O
4. CN[C@@H]1[C@H](O[C@H]2[C@H](O[C@H]3[C@H](O)[C@@H](O)[C@H](N=C(N)N)[C@@H](O)[C@@H]3N=C(N)N)O[C@@H](C)[C@]2(O)C=O)O[C@@H](CO)[C@H](O)[C@H]1O
5. N=C(NO)N1N=C(c2ccccc2O)C[C@H]1c1ccc(O)cc1

1: > 31 µM; 2: > 62 µM; 3: 8 µM; 4: 1 µM; 5: 5 µM

Okay, here is my list. What is IC50 for each of these?
1. O=C(c1ccncc1)N1N=C(c2ccccc2O)C[C@H]1c1ccccc1O
2. O=C(c1ccccc1)N1N=C(c2ccccc2O)C[C@H]1c1ccccc1O
3. N=C(NO)N1N=C(c2ccccc2O)C[C@H]1c1ccccc1O
4. N=C(N)N1N=C(c2ccccc2O)C[C@H]1c1ccc(O)cc1
5. C/C(=N\NC(=O)NO)c1ccc(O)cc1
6. Cc1ccc(S(=O)(=O)N2N=C(c3ccccc3O)C[C@H]2c2ccc(O)cc2)cc1

["> 16 µM", "> 31 µM", "4 µM", "> 125 µM", "> 500 µM", "> 31 µM"]
